KIDNEY_R: recorded values
- Species on record: Rattus norvegicus
- procedure.details: Open TG-GATES - Regimen: Daily Repeat
- Type: toxicity, organism-based, Sprague-Dawley
- Set-up: regimen Daily Repeat, gender Male, age 6 weeks
- settings: in vivo, po, 0 mg/kg, […], tissue Kidney, route gavage, dose level Control, time 14 day
assay.readout: KIDNEY_R (g)

1. CN(C/C=C/C#CC(C)(C)C)Cc1cccc2ccccc12    1.2
2. CCCCC1C(=O)N(c2ccccc2)N(c2ccccc2)C1=O    1.2
3. CCCCNC(=O)NS(=O)(=O)c1ccc(C)cc1 [TOLBUTAMIDE]    1.3
4. CC(=O)[C@@]1(O)CC[C@H]2[C@@H]3C=C(Cl)C4=CC(=O)CC[C@]4(C)[C@H]3CC[C@@]21C    1.2
5. Nc1ccc(Cc2ccc(N)cc2)cc1    1.2
6. CCO    1.2
7. CC(S)C(=O)NCC(=O)O (stereo not given)    1.2
8. O=C(O)c1ccccc1Nc1ccccc1    1.3
9. O=c1ccc2ccccc2o1    1.2
10. COc1ccc([C@@H]2Sc3ccccc3N(CCN(C)C)C(=O)[C@@H]2OC(C)=O)cc1    1.3

###

Entries annotated with measured KIDNEY_R
- Species: Rattus norvegicus
- procedure.details: Open TG-GATES - Regimen: Single
- Format: toxicity, organism-based, Sprague-Dawley
- Design: regimen Single, gender Male, age 6 weeks
- settings: in vivo, po, 0 mg/kg, 24 h, tissue Kidney, route gavage, dose level Control
assay.readout: KIDNEY_R (g)

1) C=C[C@H]1C[N@@]2CC[C@H]1C[C@@H]2[C@@H](O)c1ccnc2ccc(OC)cc12    1
2) CN(C)CCCN1c2ccccc2Sc2ccc(Cl)cc21    1
3) O=c1ccc2ccccc2o1    0.9
4) CC(S)C(=O)NCC(=O)O (configuration not stated)    1
5) CCCCNC(=O)NS(=O)(=O)c1ccc(C)cc1 [TOLBUTAMIDE]    1
6) O=C(O)c1ccccc1Nc1ccccc1    1
7) Nc1ccc(Cc2ccc(N)cc2)cc1    0.9
8) CCO    1
9) COc1ccc([C@@H]2Sc3ccccc3N(CCN(C)C)C(=O)[C@@H]2OC(C)=O)cc1    0.9
10) COc1cc2ncnc(Nc3ccc(F)c(Cl)c3)c2cc1OCCCN1CCOCC1    1
11) CC(=O)[C@@]1(O)CC[C@H]2[C@@H]3C=C(Cl)C4=CC(=O)CC[C@]4(C)[C@H]3CC[C@@]21C    1
12) CN(C/C=C/C#CC(C)(C)C)Cc1cccc2ccccc12    1

###

- Species: Rattus norvegicus
- procedure.details: Open TG-GATES - Regimen: Single
- Format: toxicity, organism-based, Sprague-Dawley
- Parameters: regimen Single, gender Male, age 6 weeks
- settings: in vivo, po, 0 mg/kg, 3 h, tissue Plasma, route gavage, dose level Control
Let's look at some molecules and their measured TBIL.
assay.readout: TBIL (mg/dL)

1. NS(=O)(=O)c1cc(C(=O)O)c(NCc2ccco2)cc1Cl [FUROSEMIDE]    0.058
2. CN(CCOc1ccc(CC2SC(=O)NC2=O)cc1)c1ccccn1.O=C(O)/C=C\C(=O)O (stereo not given) [ROSIGLITAZONE MALEATE]    0.046
3. CCN(CC)C(=S)SSC(=S)N(CC)CC    0.006
4. Nc1ccc(Cc2ccc(N)cc2)cc1    0.056
5. O=c1ccc2ccccc2o1    0.3
